# RUN DESCRIPTION: LAP4-GFP modulation potency in yeast, dose response, cell-based, MLPCN hits, flow cytometry (AID 2745);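 note: yeast exposed to compound for three hours at 30 degrees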
# CONDITION DETAILS: S. cerevisiae LAP4-GFP reporter, flow cytometry fluorescence; at 33 µM (top of the series)
Calls of active or inactive are those of the source. The rule behind the calls is not given here.
What LAP4-GFP fluorescence (kMESF) was measured for each of the following?

Exercise: Quickly give me recorded LAP4-GFP fluorescence (kMESF) for `O=C1C(Cl)=C(N2CCN(Cc3ccccc3)CC2)C(=O)N1c1ccccc1`
Solution: 4.11 kMESF (inactive)

Exercise: Consider the compound `O=C(Oc1ccnc2cc(Cl)ccc12)N1CCOCC1` and give its recorded LAP4-GFP fluorescence (kMESF).
Solution: 2.63 kMESF (inactive)

Exercise: Give the reported value of LAP4-GFP fluorescence (kMESF) for this record: `O=C(C#Cc1cccc([N+](=O)[O-])c1)c1ccccc1`
Solution: 8.01 kMESF (inactive)

Exercise: Return LAP4-GFP fluorescence (kMESF) for the following compound: `CCOc1ccc(NC2=C(Cl)C(=O)N(Cc3ccccc3)C2=O)cc1`
Solution: 6.11 kMESF (inactive)

Exercise: // fetch LAP4-GFP fluorescence (kMESF) given entry `CN1C(=O)/C(=N\OC(=O)c2cccc3ccccc23)c2ccccc21`
Solution: 7.11 kMESF (inactive)

Exercise: Write down LAP4-GFP fluorescence (kMESF) measured for item `O=C(NC(=S)Nc1ccc2oc(=O)ccc2c1)c1cccc(Cl)c1`
Solution: 3.47 kMESF (inactive)

###

# RUN DESCRIPTION: LAP4-GFP modulation potency in yeast, dose response, cell-based, MLPCN hits, flow cytometry (AID 2745);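 note: yeast exposed to compound for three hours at 30 degrees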
# CONDITION DETAILS: S. cerevisiae LAP4-GFP reporter, flow cytometry fluorescence; at 33 µM (top of the series)
The source made the active and inactive calls. The rule behind the calls is not given here.
OBSERVATION TYPE: LAP4-GFP fluorescence (kMESF)

Exercise: Quick one: give measured LAP4-GFP fluorescence (kMESF) for `Cc1nn2c(-c3ccncc3)nnc2c2ccccc12`
Solution: 3.34 kMESF (inactive)

Exercise: Annotate the compound `CC(=O)Oc1oc(-c2ccccc2)nc1C=Nc1ccc(N(C)C)cc1` with its measured LAP4-GFP fluorescence (kMESF).
Solution: 7.39 kMESF (inactive)

Exercise: Return value of LAP4-GFP fluorescence (kMESF) for input `COc1cc(C=C2C(=O)c3ccccc3C2=O)cc(OC)c1` , no commentary.
Solution: 4.28 kMESF (inactive)

Exercise: Supply reported LAP4-GFP fluorescence (kMESF) belonging to this compound: `O=C(Nc1cccc(C(F)(F)F)c1)Oc1ccc(Cl)c2cccnc12`
Solution: 12.8 kMESF (inactive)

Exercise: Tell me LAP4-GFP fluorescence (kMESF) reported for `O=C1NC(=O)N(CCc2ccc(F)cc2)C(=O)/C1=C/c1cccs1`
Solution: 9.69 kMESF (inactive)

Exercise: Provide LAP4-GFP fluorescence (kMESF) value for the following compound: `Cc1c(Br)c(=O)oc2c(Br)c(O)c(O)cc12`
Solution: 2.43 kMESF (inactive)

Exercise: Look up LAP4-GFP fluorescence (kMESF) of `Cc1ccc(-c2nc(C)sc2CC(=O)Nc2nnc(C)s2)cc1` and report it.
Solution: 3.81 kMESF (inactive)

Exercise: Provide one value: measured LAP4-GFP fluorescence (kMESF) of `Cc1ccc2[nH]cc(/C=C/c3cc[n+](C)cc3)c2c1`
Solution: 5.34 kMESF (inactive)

Exercise: Tell me its LAP4-GFP fluorescence (kMESF) given Nc1nc(N)c2nc(CNc3ccc(C(=O)NC(CCC(=O)O)C(=O)O)cc3)cnc2n1 (stereo not drawn) as the entry.
Solution: 3.13 kMESF (inactive)

Exercise: Name the recorded LAP4-GFP fluorescence (kMESF) of the item `COc1cccc(/C=C2\SC(=S)N(CCCC(=O)Nc3ccc(C(=O)O)cc3)C2=O)c1` in your answer.
Solution: 3.71 kMESF (inactive)

Exercise: Indicate its recorded LAP4-GFP fluorescence (kMESF); the compound in question is `O=C(CSC1=NS(=O)(=O)c2ccccc21)Nc1ccccc1`
Solution: 7.82 kMESF (inactive)

Exercise: Note down LAP4-GFP fluorescence (kMESF) recorded for `CCOc1cc(C=C2C(=O)c3ccccc3C2=O)ccc1OCC(=O)Nc1ccc(C)cc1`
Solution: 3.87 kMESF (inactive)

Exercise: Look up and state reported LAP4-GFP fluorescence (kMESF) for `Cc1ccc(NC(=O)CCc2ccccc2)cc1S(=O)(=O)N1CCOCC1`
Solution: 3.23 kMESF (inactive)

Exercise: Dear colleague, please send me the reported LAP4-GFP fluorescence (kMESF) for CCOC(=O)c1c(C)oc2c1c(C(c1ccncc1)N1CCOCC1)c(O)c1ccccc12 (stereo not drawn) when you can.
Solution: 6.29 kMESF (inactive)

Exercise: Retrieve LAP4-GFP fluorescence (kMESF) measured for `Cc1cc2ccccn2c1C(=O)c1ccc([N+](=O)[O-])o1` and print it.
Solution: -3.89 kMESF (inactive)

Exercise: Specify reported LAP4-GFP fluorescence (kMESF) for the compound shown: O=C1N(c2ccccc2C(F)(F)F)OC1(Cc1ccccc1)c1ccccc1 (stereo not drawn)
Solution: 4.48 kMESF (inactive)

Exercise: Let me know recorded LAP4-GFP fluorescence (kMESF) for COc1ccc(C2=CC3=C(Br)C(=O)C(C)(O)C(=O)C3=CO2)cc1 (stereo not drawn) , thanks.
Solution: 0.34 kMESF (inactive)

Exercise: Give recorded LAP4-GFP fluorescence (kMESF). `CC1(C)OC(c2ccccc2)=C/C(=C/C=C2C(=O)NC(=S)NC2=O)O1`
Solution: 3.03 kMESF (inactive)

Exercise: Could you please provide reported LAP4-GFP fluorescence (kMESF) for `O=C(NC(=S)NNC(=O)c1ccc(Cl)cc1Cl)c1cccnc1` ? Thanks!
Solution: 4.37 kMESF (inactive)

Exercise: Find the measured LAP4-GFP fluorescence (kMESF) of `N/C(=N\OC(=O)c1ccc(Cl)cc1Cl)c1ccccc1` and report it.
Solution: 12.4 kMESF (inactive)

Exercise: Tell us which LAP4-GFP fluorescence (kMESF) value is on record for `O/C=c1\ccc2cccc3nc(C(F)(F)F)nc1c23`
Solution: 15.8 kMESF (inactive)

Exercise: # return recorded LAP4-GFP fluorescence (kMESF) for input `O=C1C(=O)c2ccccc2-c2ccccc21`
Solution: 5.27 kMESF (inactive)

Exercise: Return LAP4-GFP fluorescence (kMESF) for the following compound: CCOc1ccc(C(C)=O)cc1N1C(=O)C2C3C=CC(O3)C2C1=O (stereo not drawn)
Solution: 14 kMESF (inactive)
